test system: HOP-92; assay: NCI tumour cell line growth inhibition, 48 h
Active and inactive are the calls of the source. No stated cut-off is given here; in the data, active = GI50 up to about 1.1 µM and inactive = higher.
Just give me one of these, please: active, inactive

compound	measurement target	cat
CC(C)NC(=O)OCc1c(COC(=O)NC(C)C)c(-c2ccc[n+](COC(=O)C3CC3)c2)n2c1CCC2	HOP-92	inactive

Let us examine a further case.
Hi, sorry to bother you, what did the test record for O=C(CC1(O)C(=O)Nc2c(Cl)cc(Cl)cc21)c1ccc(F)cc1 (centres undefined) ?
inactive

###

tested on: MCF7; assay: NCI tumour cell line growth inhibition, 48 h
Activity calls are given as the source filed them. Cut-off read from the data, not from the text of the source: active = GI50 up to about 1.1 µM and inactive = higher.
For each record, write down the corresponding GI50.

Guide cases for GI50, answers given:
>>> print(df.to_string())
                                   compound  parameter_measured               result
0  Cn1c(=O)c2c(nc(-n3nc(-c4ccc(Cl)cc4)cc3N)n2C)n(C)c1=O                GI50   68.4 µM (inactive)
1           COc1cc(/C=N/c2ccccn2)cc(OC)c1OC                GI50   54.5 µM (inactive)
2            CCN(CC)/[N+]([O-])=N/OCOC(C)=O                GI50  > 100 µM (inactive)
3  CCOC(=O)C(=Cc1[nH]c2ccccc2c1-c1c[nH]c2ccccc12)C(=O)OCC                GI50   4.71 µM (inactive)

The following compounds each have a reported value; give each one's GI50.
1. CCOC(=O)c1ccc(/N=C2\Sc3nc4ccccc4n3\C2=N\c2ccc(C(=O)OCC)cc2)cc1
2. Cc1ccc(C)n2c1nc1cc3ccccc3cc12
3. Cc1c(-c2ccccc2)c(C#N)c2nnn(C3CCCCC3)c(=O)n12
4. Cc1ccc2nc(-c3ccc(-n4c(C)nc(=O)c(-c5ccc(F)cc5)c4C)cc3)sc2c1
5. C=CCNC(=O)NC1=CSC2=NC(=O)C3(NN12)c1ccccc1-c1ccccc13
6. Cc1[nH]c(=O)[nH]c(=O)c1N(CCF)CCCl [FLUORODOPAN]

1: 8.83 µM (inactive); 2: 1.14 µM (inactive); 3: > 100 µM (inactive); 4: 13.3 µM (inactive); 5: > 10 µM (inactive); 6: 256 µM (inactive)

###

tested on: M19-MEL; experiment: NCI tumour cell line growth inhibition, 48 h
Active and inactive are the calls of the source. No stated cut-off is given here; in the data, active = GI50 up to about 1.1 µM and inactive = higher.
Outcome field: choose from active, inactive

In [3]: df
Out[3]:
                                   compound       cat
0          Cc1c2c(cc3c1[nH]c1ccccc13)C=NCC2  inactive
1        O=C(N/C=C/C=C/Sc1ccccc1)OCc1ccccc1  inactive
2                      CCCCCCCCCCOC(=O)NCCC  inactive
3  COc1cc([C@@H]2c3cc4c(cc3[C@@H](NC(=O)c3ccccc3)C3COC(=O)[C@@H]32)OCO4)cc(OC)c1O (stereo not given in full)  inactive
4  O=C(CC1(O)C(=O)Nc2c(Cl)cc(Cl)cc21)c1ccc(F)cc1 (stereo not given)  inactive

State the result this test recorded for "Cc1cc(C)c2c(c1C)CN1CN2Cc2c(C)c(C)cc(C)c21" .
inactive

Which result was noted for this compound in the test: "COc1ccc(-c2cc(C(=O)Nc3ccc(C)c(C)c3)nc(NC#N)n2)cc1"
inactive

Assay outcome for CC[C@@]1(OC(=O)C(N)CCCCN)C(=O)OCc2c1cc1n(c2=O)Cc2cc3ccccc3nc2-1 (stereo not given in full) : what was it?
active

Hi, sorry to bother you, what did the test record for "COc1cc2nncc(Sc3cnnc4ccccc34)c2cc1OC" ?
inactive

Per the records of this test, what outcome belongs to "CC(=O)NC1=C[C@@H]([C@H]2COC(C)(C)O2)OC1=O" ?
inactive

###

tested on: RXF 631; experiment: NCI tumour cell line growth inhibition, 48 h
Activity calls are given as the source filed them. Rule as the data show it: active = GI50 up to about 1.1 µM and inactive = higher.
parameter measured: GI50

State the recorded GI50 for every item in the following list.
1. Cc1oc2c(C)c3oc(=O)cc(C)c3cc2c1CNC(=O)[C@@H]1OCCOCCOCCOCCOCCOC1C(=O)O (stereo partly drawn)
2. S=c1c2ccccc2c(=S)n2n1CC=CC2
3. c1ccc([S+](c2ccccc2)c2ccc(Sc3ccc([S+](c4ccccc4)c4ccccc4)cc3)cc2)cc1
4. CCOC(=O)C(C)(C)Oc1ccc2c(C)c(-c3ccc(Cl)cc3)c(=O)oc2c1
5. CSc1ccc2c(cc1=O)[C@@H](NC(=O)c1cc(O)c(O)c(O)c1)CCc1cc(O)c(O)c(O)c1-2
6. O=C1C(Cl)=C(Cl)C(=O)N1c1ccc(Cl)c(Cl)c1Cl
7. Cc1ccc(C(=O)O)cc1NC(=O)c1cc(/C=C/c2ccccc2)[nH]c(=S)n1

1: 36.1 µM (inactive); 2: > 100 µM (inactive); 3: 58.2 µM (inactive); 4: 32.6 µM (inactive); 5: 15.5 µM (inactive); 6: > 100 µM (inactive); 7: > 100 µM (inactive)

Recall the recorded GI50 for "Cc1ccc(/C=N/NS(=O)(=O)c2ccccc2)cc1" with RXF 631 and state it.
> 100 µM (inactive)

###

tested on: BT-549; test: NCI tumour cell line growth inhibition, 48 h
Active and inactive are the calls of the source. No stated cut-off is given here; in the data, active = GI50 up to about 1.1 µM and inactive = higher.
Hi there, I'd appreciate the recorded GI50 for every entry that follows.

In the examples that follow, each entry is paired with its recorded GI50.
compound	GI50
O=c1[nH]c2ccccc2nc1CBr	9.27 µM (inactive)
OCCSCc1cc(Cl)cc(Cl)c1O	> 100 µM (inactive)
COc1ccc(-c2oc3c(CC(=O)O)cccc3c(=O)c2OC)cc1	> 100 µM (inactive)
Cc1ccc(S(=O)(=O)NCCCCC(N)C(=O)O)cc1 (stereo not given)	> 100 µM (inactive)

Please give GI50, item by item, for the list that follows.
1. COc1ccc2c(c1)CC[C@@H]1C2CC[C@]2(C)C(=O)N(CCN(C)C)C(=O)CC12 (stereo not given in full)
2. CCNC(=S)NNC(=O)C12CC3CC(CC(C3)C1)C2
3. CC1=C2c3ccccc3N(S(=O)(=O)c3ccccc3)[C@H]2[C@H](C(=O)N2C3CC4CC[C@@]3(CS2(=O)=O)C4(C)C)CC1 (stereo not given in full)
4. CC1(C)[C@@H]2C[C@H]1c1cnc(-c3ccccn3)cc1[C@H]2C(O)[C@@H]1c2cc(-c3ccccn3)ncc2[C@H]2C[C@@H]1C2(C)C (stereo not given in full)
5. COC1C=COC2(C)Oc3c(C)c(O)c4c(O)c(c(C5SCCS5)c(O)c4c3C2=O)NC(=O)C(C)=C/C=C\C(C)C2OC(C)(C)OC(C2C)C(C)C(OC(C)=O)C1C (stereo not given)
6. COc1ccc(-c2oc3cc(O)c(OC)c(O)c3c(=O)c2O)cc1
7. CC1(C)O[C@@H]2[C@@H](COC(=O)c3ccccc3)C[C@@H](C#N)[C@@H]2O1
8. Cc1c2c(n(Cc3ccccn3)c1C)NN=C(C#N)S2(=O)=O

> 100 µM (inactive)
> 100 µM (inactive)
8.28 µM (inactive)
0.184 µM (active)
3.73 µM (inactive)
8.36 µM (inactive)
> 100 µM (inactive)
> 100 µM (inactive)

// each compound listed below needs its GI50
1. Nc1nc(NCCCO)cc(=O)[nH]1
2. CC1=NN2C(=N)/C(=C/c3ccccc3)C(=O)N=C2S1
3. COc1ccc(CN2C(=O)CCC/C=C\[C@H]2CI)cc1
4. CCC(=O)Nc1cccc(NC(=O)c2c(Cl)c(Cl)c(Cl)c(Cl)c2-c2nc3ccccc3[nH]2)c1
5. Cc1cc(-c2nc3ccccc3s2)ccc1N
6. COc1cccc(/C=C2\CCCCCC2=O)c1

["> 100 µM (inactive)", "> 100 µM (inactive)", "19.5 µM (inactive)", "87.3 µM (inactive)", "48.3 µM (inactive)", "> 100 µM (inactive)"]

Items follow; give GI50 for each.
1. Cc1nc2c(N3CCCC3)nc(N3CCNCC3)nc2nc1NCc1ccccc1
2. C=CCNC(=O)NC1=CSC2=NC(=O)C3(NN12)c1ccccc1-c1ccccc13

2.4 µM (inactive)
> 10 µM (inactive)

###

So I've got a bunch of compounds here, and I need their GI50 values.
test system: SK-OV-3; test: NCI tumour cell line growth inhibition, 48 h
The source made the active and inactive calls. Cut-off read from the data, not from the text of the source: active = GI50 up to about 1.1 µM and inactive = higher.

Recorded results for 6 compounds are shown here.
>>> df
                                   compound  measurement_target                result
0                   c1cc(-c2cn3ccsc3n2)ccn1             SK-OV-3   > 100 µM (inactive)
1  Cn1c(=O)c2c(nc(-n3nc(-c4ccc(Cl)cc4)cc3N)n2C)n(C)c1=O             SK-OV-3    18.1 µM (inactive)
2  COC(=O)C1(C)C=CC(=O)C2(C)C1C(O)C1OC3CC(c4ccoc4)C(C)=C3C1(C)C2CC(=O)O (stereo not given)             SK-OV-3   > 100 µM (inactive)
3             CC(=O)Nc1nc(O)c2nc(C=O)cnc2n1             SK-OV-3   > 100 µM (inactive)
4  CC(=O)N1CCOC12N=NC(C)(C)O2 (stereo not given)             SK-OV-3   > 100 µM (inactive)
5      Cc1cc(-c2nc3ccccc3s2)ccc1NS(=O)(=O)O             SK-OV-3  > 33.5 µM (inactive)

Dear reader, for each entry below, please note its GI50.
1. O=C(Nc1ccccc1C(=O)Nc1nccs1)c1ccccc1
2. O=C(CCc1cc(O)ccc1O)OCCc1ccccc1
3. CC(=O)NC(CCCNC(=O)OCc1ccccc1)C(=O)NCc1ccccc1 (stereo not given)
4. COc1ccc(-c2oc3cc(O)c(OC)c(O)c3c(=O)c2O)cc1 [BETULETOL]

1. 23.2 µM (inactive)
2. > 100 µM (inactive)
3. > 100 µM (inactive)
4. 6.22 µM (inactive)
